Target: Itk (Homo sapiens)
Construct: Kinases are expressed as either kinase domains or full length constructs; made in house
Sequence (Q08881 whole entry, species assumed, the tested form may be a part): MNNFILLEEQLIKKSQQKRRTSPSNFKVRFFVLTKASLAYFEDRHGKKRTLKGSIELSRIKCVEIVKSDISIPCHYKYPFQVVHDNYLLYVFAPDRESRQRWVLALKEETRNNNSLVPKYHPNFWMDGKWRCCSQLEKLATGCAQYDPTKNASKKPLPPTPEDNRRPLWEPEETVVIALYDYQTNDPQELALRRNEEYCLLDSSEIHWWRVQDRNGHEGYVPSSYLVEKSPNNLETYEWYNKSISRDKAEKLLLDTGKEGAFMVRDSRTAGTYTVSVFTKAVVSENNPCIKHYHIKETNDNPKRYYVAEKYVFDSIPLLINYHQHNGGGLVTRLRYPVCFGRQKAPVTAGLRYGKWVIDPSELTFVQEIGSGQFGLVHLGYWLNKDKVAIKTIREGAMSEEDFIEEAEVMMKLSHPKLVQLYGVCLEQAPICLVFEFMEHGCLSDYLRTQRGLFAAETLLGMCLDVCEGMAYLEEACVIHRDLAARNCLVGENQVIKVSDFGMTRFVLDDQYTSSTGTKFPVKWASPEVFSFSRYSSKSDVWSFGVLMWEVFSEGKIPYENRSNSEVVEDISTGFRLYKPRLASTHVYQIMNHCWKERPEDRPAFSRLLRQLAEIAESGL
Assay: Kinase inhibition assay (33P transfer), Itk
Assay type: biochemical
Details: Table 3; read-out: Itk-1
property: IC50

compound: COc1cc(Nc2ncnc(-n3c(N)nc4ccccc43)n2)ccc1OCCn1ccnn1 [Compound 324]
measurement target: Itk (Homo sapiens)
IC50: 0.9 to 5.4 µM

Name the recorded IC50 for COc1cccc(Nc2ncnc(-c3cccs3)n2)n1 [Compound 362] . > 15.8 µM

Name the recorded IC50 for COc1cc(Nc2ncnc(Nc3cc(-c4ccc(Cl)cc4)n[nH]3)n2)cc(OC)c1OC [Compound 367] . 0.881 to 5.29 µM

Fill blank: measured IC50 of the compound COc1ccc(Nc2ncnc(-n3c(N)nc4ccccc43)n2)cc1OC [Compound 285] is ____. > 12.4 µM

What value of IC50 has been reported for the following compound? CC(=O)Nc1ccc(Nc2ncnc(-c3cccs3)n2)cc1 [Compound 355] > 14.5 µM
